Test: Terahertz time-domain spectroscopy (THz-TDS) dielectric losses of polyalcohols, linear fits ε″(T/Tg)=A+BT/Tg
Format: physicochemical
Conditions: 1 THz; below about 0.6 Tg; brackets = standard deviation at last decimal place
Text: In these examples, systematic THz-TDS study allows direct access to the complex dielectric function for the frequency range of 0.1-3 THz, over a wide range of temperatures. […]
Test Readout: B1, linear coefficient of ε″(T/Tg)=A+BT/Tg in region (i)

Compound	Reported Result
OC[C@@H](O)[C@H](O)CO [threitol]	0.07(1)
OC[C@@H](O)[C@H](O)[C@@H](O)CO [xylitol]	0.06(1)
OC[C@@H](O)[C@@H](O)[C@H](O)[C@@H](O)CO [sorbitol]	0.02(2)
OCC(O)CO [glycerol]	0.03(1)

----------
Test: Terahertz time-domain spectroscopy (THz-TDS) dielectric losses of polyalcohols, linear fits ε″(T/Tg)=A+BT/Tg
Assay type: physicochemical
Settings: 1 THz; above Tg; brackets = standard deviation at last decimal place
A collection of compounds and their measured B3, linear coefficient of ε″(T/Tg)=A+BT/Tg in region (iii)
Test Readout: B3, linear coefficient of ε″(T/Tg)=A+BT/Tg in region (iii)

Compound	Reported Result
OCC(O)CO [glycerol]	0.64(1)
OC[C@@H](O)[C@@H](O)[C@H](O)[C@@H](O)CO [sorbitol]	1.92(5)
OC[C@@H](O)[C@H](O)CO [threitol]	0.43(15)
OC[C@@H](O)[C@H](O)[C@@H](O)CO [xylitol]	0.82(4)

----------
Test: Terahertz time-domain spectroscopy (THz-TDS) dielectric losses of polyalcohols, linear fits ε″(T/Tg)=A+BT/Tg
Assay type: physicochemical
Settings: dielectric losses at 1 THz
Test Readout: Tα, crossover point of linear fits from region (ii) to region (iii) (K)

1) OC[C@@H](O)[C@H](O)[C@@H](O)CO 248
2) OC[C@@H](O)[C@H](O)CO 228
3) OC[C@@H](O)[C@@H](O)[C@H](O)[C@@H](O)CO 265
4) OCC(O)CO 189
